molecular target: Vasopressin V1a receptor (Homo sapiens, UniProt P37288); experiment: Displacement of [3H]vasopressin from human vasopressin V1a receptor expressed in CHO cells at 10 uM; format: cell-based
Sequence (P37288 whole entry): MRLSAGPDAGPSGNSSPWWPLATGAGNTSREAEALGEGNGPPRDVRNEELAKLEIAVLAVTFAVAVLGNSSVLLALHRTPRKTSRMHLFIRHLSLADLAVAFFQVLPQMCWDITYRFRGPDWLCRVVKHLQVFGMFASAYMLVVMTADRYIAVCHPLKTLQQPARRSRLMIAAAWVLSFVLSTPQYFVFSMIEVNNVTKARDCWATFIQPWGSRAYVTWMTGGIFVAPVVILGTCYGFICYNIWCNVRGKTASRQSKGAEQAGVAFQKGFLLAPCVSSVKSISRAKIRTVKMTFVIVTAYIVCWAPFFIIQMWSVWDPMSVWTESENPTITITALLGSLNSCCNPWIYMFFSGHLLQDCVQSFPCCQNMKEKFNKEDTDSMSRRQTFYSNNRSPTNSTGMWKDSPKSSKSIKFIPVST
pKi: −log10 of the molar value.
pKi reference

| Compound string | pKi |
| --- | --- |
| CCOCc1nnc(-c2ccc(OCC)c(C)c2)n1-c1ccc(OC)nc1 | 6.26 |
| COc1ccc(-n2c(C)nnc2-c2ccc(-c3ccccc3OC)cc2)cn1 | 6.28 |
| CO/N=C1/C[C@H](c2nc(C)no2)N(C(=O)c2ccc(-c3ccccc3C)cc2)C1 | 7.22 |

----------
Ki reference
target: Oxytocin receptor (Rattus norvegicus); assay: Displacement of [3H]-oxytocin from oxytocin receptor in rat uterus tissue; assay type: tissue-based
Sequence (P70536 whole entry): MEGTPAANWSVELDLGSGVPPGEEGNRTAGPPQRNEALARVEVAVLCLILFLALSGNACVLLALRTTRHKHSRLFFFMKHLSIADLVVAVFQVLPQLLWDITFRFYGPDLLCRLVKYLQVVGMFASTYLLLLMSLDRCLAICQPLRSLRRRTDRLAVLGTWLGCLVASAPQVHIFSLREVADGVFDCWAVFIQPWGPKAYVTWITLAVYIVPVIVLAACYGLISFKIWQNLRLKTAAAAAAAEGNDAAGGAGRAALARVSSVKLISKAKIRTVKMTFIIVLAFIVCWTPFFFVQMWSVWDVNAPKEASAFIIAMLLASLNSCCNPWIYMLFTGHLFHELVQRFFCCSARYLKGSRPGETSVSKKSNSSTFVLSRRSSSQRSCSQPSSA

| Compound string | System tested | Ki |
| --- | --- | --- |
| COc1cc(OC2CCN(Cc3ccc[n+]([O-])c3C)CC2)ccc1C(=O)N1CCC(N2C(=O)OCc3ccccc32)CC1 | Oxytocin receptor (Rattus norvegicus) | 0.014 µM |
| CC1(C)[C@@H]2CC[C@@]1(CS(=O)(=O)N1CCC3(C=Cc4ccccc43)CC1)[C@@](O)(CC(=O)O)C2 | Oxytocin receptor (Rattus norvegicus) | 0.37 µM |
| Cc1ccccc1N1CCN(S(=O)(=O)C[C@]23CC[C@H](C[C@@H]2NC(=O)[C@@H](N)CCS(C)(=O)=O)C3(C)C)CC1 | Oxytocin receptor (Rattus norvegicus) | 0.0036 µM |
